B1: ESRRA (parent)
chain: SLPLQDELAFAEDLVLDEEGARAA

- Variants of: B1
- Test Protocol: protein stability index of a GFP-peptide fusion (GPS, HEK-293T) (PSI 1-6); higher = more stable;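 note: lentivirally expressed fusions sorted by FACS into six bins by GFP to DsRed ratio, PSI derived from sequencing read proportions per bin multiplied by bin number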
- Run Conditions: c terminus: a fixed tail appended
Label class 1 when protein stability index is at or above 3; otherwise label class 0.

Reported protein stability index reaches at least 3 for Q5A ? class 1

Reported protein stability index reaches at least 3 for S1N ? class 0

Reported protein stability index reaches at least 3 for D13P ? class 1

Reported protein stability index reaches at least 3 for Q5N ? class 1
